Tested on: H3K9Ac in PC-3 cells
test_method_notes: High content microscopy of H3K9Ac in PC-3 cells
stated_conditions: Homo sapiens, PC-3, 3 h, read-out: EC50, decrease of H3K9Ac
readout_kind: EC50

                                 mol_smiles  readout_kind  value_observed
0  CNC(=O)Nc1ccc2c(c1)CC[C@@]21OC(=O)N(CC(=O)N(Cc2ccc(F)cc2)[C@@H](C)C(F)(F)F)C1=O          EC50         > 10 µM
